Measured Target: human TRPA1 (Homo sapiens)
Sequence (O75762 whole entry): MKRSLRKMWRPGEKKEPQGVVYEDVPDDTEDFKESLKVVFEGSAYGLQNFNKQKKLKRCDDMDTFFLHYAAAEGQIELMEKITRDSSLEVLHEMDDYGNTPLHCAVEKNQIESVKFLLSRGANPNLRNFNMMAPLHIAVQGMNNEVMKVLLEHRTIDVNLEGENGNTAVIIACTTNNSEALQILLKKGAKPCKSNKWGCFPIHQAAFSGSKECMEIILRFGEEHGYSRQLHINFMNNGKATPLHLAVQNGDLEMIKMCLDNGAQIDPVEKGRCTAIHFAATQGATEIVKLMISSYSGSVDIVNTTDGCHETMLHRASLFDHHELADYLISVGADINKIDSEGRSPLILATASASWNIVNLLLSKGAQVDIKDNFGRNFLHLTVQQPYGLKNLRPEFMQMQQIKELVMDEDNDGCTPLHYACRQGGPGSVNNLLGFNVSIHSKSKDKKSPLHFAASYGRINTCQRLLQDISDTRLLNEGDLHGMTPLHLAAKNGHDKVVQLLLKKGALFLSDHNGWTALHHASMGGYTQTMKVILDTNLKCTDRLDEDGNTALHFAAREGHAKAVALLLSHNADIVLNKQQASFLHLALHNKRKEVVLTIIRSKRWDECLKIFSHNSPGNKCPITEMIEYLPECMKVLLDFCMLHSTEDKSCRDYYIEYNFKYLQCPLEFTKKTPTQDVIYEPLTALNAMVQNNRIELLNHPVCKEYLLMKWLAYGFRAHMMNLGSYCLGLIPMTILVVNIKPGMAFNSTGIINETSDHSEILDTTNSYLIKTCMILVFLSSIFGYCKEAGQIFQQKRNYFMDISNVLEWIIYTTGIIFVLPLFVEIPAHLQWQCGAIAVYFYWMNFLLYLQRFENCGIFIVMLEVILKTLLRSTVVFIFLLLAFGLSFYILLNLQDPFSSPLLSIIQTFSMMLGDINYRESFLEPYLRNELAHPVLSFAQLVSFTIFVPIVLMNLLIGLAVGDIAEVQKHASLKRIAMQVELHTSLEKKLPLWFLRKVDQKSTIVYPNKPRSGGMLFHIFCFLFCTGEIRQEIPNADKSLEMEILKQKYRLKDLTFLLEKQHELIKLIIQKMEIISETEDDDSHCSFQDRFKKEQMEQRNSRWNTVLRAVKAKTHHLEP
Measurement Notes: cell-based
Experimental Setup: read-out: Activity (IC50)
Reported Metric: IC50

[[record]]
compound = "C=CCN1C(=O)NC(c2cccc(OCC)c2)C2=C1c1ccccc1C2=O (stereo not drawn) [Compound 614]"
result = "100 to 500 nM"

[[record]]
compound = "CCOc1cccc(C2NC(=O)N(Cc3ccc(F)cc3)C3=C2C(=O)c2ccccc23)c1 (stereo not drawn) [Compound 607]"
result = "100 to 500 nM"

[[record]]
compound = "N#CN=C1NC2=C(C(=O)c3ccccc32)C(c2cccc(OCC3CC3)c2Cl)N1 (stereo not drawn) [Compound 957]"
result = "> 1000 nM"

[[record]]
compound = "C=CCOc1cccc(C2NC(=O)N(C)C3=C2C(=O)c2ccccc23)c1C(F)(F)F (stereo not drawn) [Compound 643]"
result = "> 1000 nM"

[[record]]
compound = "CN1C(=NC#N)NC2=C(C(=O)c3c(Cl)cccc32)C1c1cccc(OCC2CC2)c1 (stereo not drawn) [Compound 953]"
result = "> 1000 nM"

[[record]]
compound = "CCOc1cccc(C2NC(=O)N(CC(=O)O)C3=C2C(=O)c2ccccc23)c1 (stereo not drawn) [Compound 610]"
result = "> 1000 nM"

[[record]]
compound = "C=CCOc1cccc(C2NC(=O)NC3=C2C(=O)c2ccccc23)c1OC (stereo not drawn) [Compound 455]"
result = "> 1000 nM"

[[record]]
compound = "C=CCOc1cc(Cl)cc(C2NC(=O)NC3=C2C(=O)c2ccccc23)c1 (stereo not drawn) [Compound 406]"
result = "< 100 nM"

[[record]]
compound = "Cc1ccc2c(c1)C(=O)C1=C2NC(=O)NC1c1cc(O)ccc1Br (stereo not drawn) [Compound 107]"
result = "500 to 1000 nM"

